These entries and their values trace back to PubChem BioAssay AID1970.

# measured on: Dual specificity protein kinase CLK4 (Homo sapiens) (UniProt Q9HAZ1)
# Sequence (Q9HAZ1 whole entry, looked up): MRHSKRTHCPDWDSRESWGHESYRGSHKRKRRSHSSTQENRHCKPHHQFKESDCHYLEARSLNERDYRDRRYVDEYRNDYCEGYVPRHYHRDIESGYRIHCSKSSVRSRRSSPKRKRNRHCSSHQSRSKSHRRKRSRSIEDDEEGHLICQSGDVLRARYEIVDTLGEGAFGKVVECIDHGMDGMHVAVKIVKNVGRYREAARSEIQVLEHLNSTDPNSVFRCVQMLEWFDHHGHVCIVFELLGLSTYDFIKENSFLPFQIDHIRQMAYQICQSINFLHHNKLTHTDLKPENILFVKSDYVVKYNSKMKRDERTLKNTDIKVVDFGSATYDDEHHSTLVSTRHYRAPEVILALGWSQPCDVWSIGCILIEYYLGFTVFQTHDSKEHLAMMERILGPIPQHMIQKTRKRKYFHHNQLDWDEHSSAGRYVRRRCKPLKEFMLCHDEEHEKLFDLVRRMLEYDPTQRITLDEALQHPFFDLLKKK
# run description: Confirmation Assay for Inhibitors of CDC-like Kinase 4 (Kinase-Glo Assay)
# experimental conditions: recombinant Clk4, Kinase-Glo ATP depletion luminescence; series mostly up to 47.7 µM
Results filed as inconclusive are left out. The source made the active and inactive calls. The call rests on the fitted dose curve; in most records, active means well fitted inhibition curve with a large enough effect; inconclusive means small, poorly fitted or top-dose-only effect; inactive means flat fitted curve, though single readings scatter.
measured metric: Potency

{"columns": ["smiles notation", "measured on", "Potency"],
 "data": [
  ["c1nc(NCc2ccc3c(c2)OCO3)c2cc(-c3ccoc3)ccc2n1", "Dual specificity protein kinase CLK4 (Homo sapiens) (UniProt Q9HAZ1)", "631 nM (active)"],
  ["CCOC(=O)c1ccoc1-c1ccc2ncnc(NCCc3cnc[nH]3)c2c1", "Dual specificity protein kinase CLK4 (Homo sapiens) (UniProt Q9HAZ1)", "23200 nM (active)"],
  ["c1cncc(-c2ccc3ncnc(NCc4cccs4)c3c2)c1", "Dual specificity protein kinase CLK4 (Homo sapiens) (UniProt Q9HAZ1)", "3980 nM (active)"]
]}

Asked: For `COc1cccc(-c2ccc3ncnc(NCc4ccc5c(c4)OCO5)c3c2)c1` , what is its reported Potency?
Given back: 1410 nM (active)

Asked: Recorded Potency of `c1nc(OCc2cnc[nH]2)c2cc(-c3ccc4c(c3)OCO4)ccc2n1` , please.
Given back: 6540 nM (active)
